Ref: patent US10829506B2

IC50 overview
Tested on: RBL-2H3 cells
Test: Inhibition of mast cell degranulation (β-hexosaminidase release)
Format: cell-based, rat
Conditions: RBL-2H3 cells sensitized with anti-DNP IgE, triggered with DNP-HSA, 1 h preincubation
Experimental: Mast cells are key effector cells involved in allergic and inflammatory diseases, and the Rat Basophilic Leukemia clone 2H3 (RBL-2H3) cell line is a commonly used model of allergen dependent immune modulator release (degranulation) in mast cells. […] MUG substrate solution, 100 μl, were added to supernatant and lysate samples and plates were incubated 30 min at 37° C. […] Fluorescence was measured at 365 nm excitation and 440 nm emission wavelengths. […]
reported property: IC50 (µM)

>>> print(df.to_string())
                                   molecule  reported_property  test_result
0  CCCCCCCCCCCCCCN(C)CCCP(=O)(O)O [Compound 1u]               IC50          5.9
1  CCCCCCCCCCCC[N+](C)(C)CCCP(=O)(O)O [Compound 1t]               IC50          6.1
2  CCCCCCCCCCCCCC[N+](C)(C)CC(=O)[O-] [Compound 1j, N-Tetradecyl-N,N-Dimethylglycine]               IC50          5.1
3  Br.CCCCCCCCCCCCCCN(C)CCCP(=O)(OCC)OCC [Compound 1x, Hydrobromide]               IC50          5.5
4  CCCCCCCCCCCCCC[N+](C)(C)CCCCS(=O)(=O)[O-] [Compound 1e]               IC50          3.7
5  CCCCCCCCCCCCCCCC[N+](C)(C)CCCS(=O)(=O)[O-] [Compound 1h]               IC50          3.7
6  CCCCCCCCCCCC[N+](C)(C)CCCS(=O)(=O)[O-] [Compound 1i]               IC50          4.1
7  CCCCCCCCCCCCCC[N+](C)(C)CCCP(=O)([O-])O [Compound 1c]               IC50          2.8
8  CCCCCCCCCCCCCCN(C)CCCS(=O)(=O)O [Compound 1b]               IC50          4.3
